# Assay system: T1, recombinant cynomolgus GPC3 (glypican-3) (cynomolgus monkey, UniProt A0A2K5VK50 24-558)
# T1 construct: also called cynoGPC3
# Assay protocol: SPR (Biacore T200), antibody captured by anti-Fc, GPC3 injected, single-cycle kinetics, 1:1 fit; average
Kindly supply the reported Kd values for the records listed here.
Report the figure in nM without appending any unit label.

// Kd lookup, binder = v40220, H18L6_LC_N33Q mAb (antibody, human IgG1, kappa, V domains shown, no number given for this variant) VH: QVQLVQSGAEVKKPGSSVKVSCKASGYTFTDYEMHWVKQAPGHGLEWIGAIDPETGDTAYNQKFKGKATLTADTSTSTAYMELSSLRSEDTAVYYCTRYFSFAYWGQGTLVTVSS VL: EIVLTQSPATLSLSPGERATISCRSSQSLRHSQGNTYLQWYQQKPGQAPRLLIYKVSNRFSGVPARFSGSGSGTDFTLTISSLEPEDFAVYFCYQSKHVPYTFGGGTKVEIKR , result: 15.7

// Kd lookup, binder = v40210, H18L6_LC_G34S mAb (antibody, human IgG1, kappa, V domains shown, no number given for this variant) VH: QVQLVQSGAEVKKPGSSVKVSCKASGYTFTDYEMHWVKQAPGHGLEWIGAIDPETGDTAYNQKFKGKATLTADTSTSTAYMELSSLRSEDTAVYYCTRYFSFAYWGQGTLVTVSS VL: EIVLTQSPATLSLSPGERATISCRSSQSLRHSNSNTYLQWYQQKPGQAPRLLIYKVSNRFSGVPARFSGSGSGTDFTLTISSLEPEDFAVYFCYQSKHVPYTFGGGTKVEIKR , result: 6.58
